Every entry's value here was drawn from the Deep4Chem optical property database.

# Test name: photoluminescence quantum yield (fraction); solvent given as SMILES
# Assay setup: in ClCCl
Parameter: photoluminescence quantum yield

Value lookup for photoluminescence quantum yield; key = COc1ccc(C2=C3C(/C=C/c4cc(OC)c(OC)c(OC)c4)=C(C=O)C(C)=[N+]3[B-](F)(F)n3c(/C=C/c4cc(OC)c(OC)c(OC)c4)c(C=O)c(C=Cc4cc(OC)c(OC)c(OC)c4)c32)cc1 0.1

Value lookup for photoluminescence quantum yield; key = O=[N+]([O-])c1ccc(-c2nc(/C=C/c3ccccc3)c(/C=C/c3ccccc3)[nH]2)cc1 0

Value lookup for photoluminescence quantum yield; key = CC1=c2c3c4cccc5cccc(c=3c(C)[n+]2[B-](F)(F)n2c(C)c3cc6c(-c7ccccc7)c7c(c(-c8ccccc8)c6cc3c21)-c1cccc2cccc-7c12)c54 0.7

Value lookup for photoluminescence quantum yield; key = C(=C\c1ncc(-c2ccc(OCc3ccccc3)c(OCc3ccccc3)c2)o1)/c1cccc(N2CCN(c3ccccc3)CC2)c1 0.11

Value lookup for photoluminescence quantum yield; key = CCN1C(=O)C(C2C(=O)c3c4ccccc4cc4cc5ccccc5c2c34)SC1=S (configuration not stated) 0.229

Value lookup for photoluminescence quantum yield; key = CCN(CC)c1ccc2cc(/C=C(\C#N)c3nc4ccccc4o3)c(=O)oc2c1 0.0066

Value lookup for photoluminescence quantum yield; key = CCc1c(C)[nH]c(C2=[N+]3C(=C(C)c4c(C)c(CC)c(C)n4[B-]3(F)F)c3ccccc32)c1C 0.72
